Test: oral and intravenous dose pharmacokinetics in mice
Assay type: in vivo, Balb/c mice
Details: Balb/c, mouse, plasma, IV: 1 mg/kg, read-out: t0.5 (elimination half-life) (converted)
Measurement Label: half-life (h)
One number for each entry, in h.

[ask] Return reported half-life; argument: Cn1cc(-c2cnc3ccc(NC(=O)Nc4ccc(F)c(Br)c4)cc3n2)cn1
[reply] 3.9

###

Test: oral and intravenous dose pharmacokinetics in mice
Format: in vivo, Balb/c mice
Details: Balb/c, mouse, plasma, intravenous dose 1 mg/kg, read-out: area under the curve (AUC0-∞)
Measurement Label: AUC(0-inf) (ng·h/mL)
Numbers only, in ng·h/mL.

[ask] Return reported AUC(0-inf); argument: Cn1cc(-c2cnc3ccc(NC(=O)Nc4ccc(F)c(Br)c4)cc3n2)cn1
[reply] 598

###

Assay: oral and intravenous dose pharmacokinetics in mice
Type: in vivo, Balb/c mice
Details: Balb/c, mouse, plasma, oral administration 10 mg/kg, read-out: MRT
Measurement Label: MRT (h)
Answers are plain numbers, in h.

[ask] Return reported MRT; argument: Cn1cc(-c2cnc3ccc(NC(=O)Nc4ccc(F)c(Br)c4)cc3n2)cn1
[reply] 3.9

###

Exercise: for every item that follows, state its recorded microsomal CLint.
Test: in-vitro metabolic stability in human liver S9 fraction
Assay type: in vitro ADME
Settings: human liver S9 fraction; human liver S-9 fraction; read-out: intrinsic clearance
Answers are plain numbers, in µL/min/mg.

Compound: Cn1cc(-c2cnc3ccc(NC(=O)Nc4ccc(F)c(Br)c4)cc3n2)cn1 [39-100]
microsomal CLint / µL/min/mg: 1.59

Now take the following compound into account.
[ask] Return reported microsomal CLint; argument: O=C(Nc1ccc(Br)cc1)Nc1ccc2nc(-c3ccco3)c(-c3ccco3)nc2c1 [13-197, reference compound]
[reply] 12.2

###

Assay: oral and intravenous dose pharmacokinetics in mice
Assay type: in vivo, Balb/c mice
Details: Balb/c, mouse, plasma, Oral: 10 mg/kg, read-out: MRT 0-∞
Measurement Label: MRT inf (h)
Answers are plain numbers, in h.

[ask] Return reported MRT inf; argument: Cn1cc(-c2cnc3ccc(NC(=O)Nc4ccc(F)c(Br)c4)cc3n2)cn1 [39-100]
[reply] 3.9

###

Experiment: oral and intravenous dose pharmacokinetics in mice
Type: in vivo, Balb/c mice
Conditions: Balb/c, mouse, plasma, Oral: 10 mg/kg
Measurement Label: AUC(0-t) (ng·h/mL)
Answers are plain numbers, in ng·h/mL.

[ask] Return reported AUC(0-t); argument: Cn1cc(-c2cnc3ccc(NC(=O)Nc4ccc(F)c(Br)c4)cc3n2)cn1 [39-100]
[reply] 12400

###

Test: oral and intravenous dose pharmacokinetics in mice
Type: in vivo, Balb/c mice
Conditions: Balb/c, mouse, plasma, intravenous dose 1 mg/kg, read-out: mean residence time (MRT)
Measurement Label: MRT (h)
Numbers only, in h.

[ask] Return reported MRT; argument: Cn1cc(-c2cnc3ccc(NC(=O)Nc4ccc(F)c(Br)c4)cc3n2)cn1 [39-100]
[reply] 1.4

###

Assay: oral and intravenous dose pharmacokinetics in mice
Assay type: in vivo, Balb/c mice
Settings: Balb/c, mouse, plasma, oral administration 10 mg/kg, read-out: AUC0-∞
Measurement Label: AUC(0-inf) (ng·h/mL)
Numbers only, in ng·h/mL.

[ask] Return reported AUC(0-inf); argument: Cn1cc(-c2cnc3ccc(NC(=O)Nc4ccc(F)c(Br)c4)cc3n2)cn1 [39-100]
[reply] 12400
